Data origin: PubChem BioAssay (NCI)

test system: T-47D breast; assay: NCI tumour cell line growth inhibition, 48 h
MEASURED_METRIC: TGI

>>> test_value("COc1cccc(CSCC(=O)O)c1")
"> 100 µM"
>>> test_value("O=C(O)C1CCCCC1c1c2ccc(=O)c(O)c-2oc2c(O)c(O)ccc12 (stereo not drawn)")
"> 100 µM"
>>> test_value("CCCCCCNC(=O)CCC(NC(=O)c1ccc(N(C)Cc2cnc3nc(N)nc(N)c3n2)cc1)C(=O)NCCCCCC (stereo not drawn)")
"> 100 µM"

----------
test system: HL-60(TB) leukemia; test: NCI tumour cell line growth inhibition, 48 h
Reported TGI values follow for various molecules
MEASURED_METRIC: TGI

>>> test_value("C=CC(OC(C)=O)c1ccc(OC(=O)C(C)C)c(OC)c1 (stereo not given)")
"> 23.6 µM"
>>> test_value("COC1CC(OC2C(C)OC(OC3C(C)OC(OC4C(O)CC(O[C@H]5CC[C@@]6(C)C(=CC[C@]7(O)[C@@H]6C[C@@H](OC(C)=O)[C@@]6(C)[C@]7(O)CC[C@@]6(O)C(C)=O)C5)OC4C)CC3OC)CC2OC)OC(C)C1O (stereo not given in full)")
"> 12.5 µM"
>>> test_value("O=C1NC(=O)C(=Nc2cccc3c(=O)[nH][nH]c(=O)c23)C(c2nc3ccccc3s2)C1=O (stereo not given)")
"> 100 µM"
>>> test_value("O=C(CCC(=O)Nc1ccc(Cl)c(Cl)c1)CC(=O)c1ccc(F)cc1")
"> 100 µM"
>>> test_value("O=C(CCCCCC(=O)N1CC(CCl)c2ccc([N+](=O)[O-])cc21)N1CC(CCl)c2ccc([N+](=O)[O-])cc21 (stereo not given)")
"> 100 µM"
>>> test_value("CC(C)(C)c1ccc(OC(=O)Nc2ccc(O)c(C(=O)O)c2)cc1")
"> 100 µM"
>>> test_value("COC(=O)C1OC2(CCCC3CC32)O[C@H]1C(=O)OC (stereo not given in full)")
"> 100 µM"
>>> test_value("CCCC(O)c1cn(C(NC(=O)c2ccccc2)P(=O)(OCC)OCC)nn1 (stereo not given)")
"> 100 µM"
>>> test_value("C(/Cc1ccc2c(c1)OCO2)=N\\NC1=NCCN1")
"> 100 µM"
>>> test_value("Cc1cc(S(=O)(=O)/N=C/N(C)C)c(SC(=O)c2ccc(Cl)cc2)cc1Cl")
"> 100 µM"
>>> test_value("CN=C(NC(=S)N(C)C)N(C)C")
"> 100 µM"
>>> test_value("O=C(NCCO)c1ccc([N+](=O)[O-])cc1")
"> 100 µM"
>>> test_value("O=[N+]([O-])c1ccc(N/N=C/CC(O)(C(F)(F)F)C(F)(F)F)c([N+](=O)[O-])c1")
"> 10 µM"
>>> test_value("O=c1sc2c(s1)-c1sc(=O)sc1SS2")
"> 100 µM"
>>> test_value("Cn1c(=O)c(NC(=O)C(Cl)(Cl)Cl)nc2ccccc21")
"> 100 µM"
>>> test_value("COC(=O)CCc1ccc2c(c1)C(=O)CC2")
"> 100 µM"
>>> test_value("N[C@@H]1C(=O)N2C(C(=O)OC(c3ccccc3)c3ccccc3)=C(CCl)CS[C@H]12")
"> 38.3 µM"
>>> test_value("N#CC1CCCCOCCOCCOCCOCCOCCCCCC1=O (stereo not given)")
"> 100 µM"
>>> test_value("C(=N\\Nc1ccc(-c2nc3ccccc3[nH]2)cc1)/c1c(-c2ccc(Cc3ccccc3)cc2)[nH]c2ccccc12")
"> 63.5 µM"
>>> test_value("O=C1Nc2ccccc2Cn2c1cc1oc(-c3ccccc3)cc12")
"> 100 µM"
